These measurements were taken from paper PMC7874386.

# target-system: 5FW LecA (Pseudomonas aeruginosa, UniProt Q05097)
# Construct: made in house; host or cells: Escherichia coli BL21 (DE3), plasmid pET25pa1l, grown with 5-fluoroindole
# Sequence (Q05097 2-122): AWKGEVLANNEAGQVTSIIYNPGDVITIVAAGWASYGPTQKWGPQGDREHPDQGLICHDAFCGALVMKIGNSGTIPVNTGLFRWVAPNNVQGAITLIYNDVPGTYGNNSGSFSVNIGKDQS
# assay-summary: PrOF NMR titration of ligands to 5FW LecA (W42 peak intensity)
# Assay type: binding
test-readout: pKd
Keep it numeric: pKd is minus log10 of the concentration in mol/L.

> print(dat)
                                   molecule                             target.system  measured.number
1   O=C[C@H](O)[C@@H](O)[C@@H](O)[C@H](O)CO  5FW LecA (Pseudomonas aeruginosa, UniProt Q05097)             3.44
2  O=[N+]([O-])c1ccc(O[C@@H]2O[C@H](CO)[C@H](O)[C@H](O)[C@H]2O)cc1 [pNPGal, p-nitrophenyl β-D-galactoside]  5FW LecA (Pseudomonas aeruginosa, UniProt Q05097)             4.27

Now for another entry.
Record request: pKd value, item CC(=O)N[C@H]1C(O)O[C@H](CO)[C@H](O)[C@@H]1O (stereo partly drawn)
3.11
